This collection of values is drawn from ChEMBL document CHEMBL4138243.

System: Staphylococcus aureus
Test: Antibacterial activity against methicillin-resistant Staphylococcus aureus USA300 JE2 after 24 hrs by broth microdilution method
Format: functional
Settings: USA300 JE2, 24 h
# Lookup of reported MIC keyed by entry
The reply should contain only the number, in µg/mL.

COc1ccc(OC)c2nc3c(C(=O)O)cccc3nc12: 64
N#CNC(=O)c1cccc2nc3cccc(Cl)c3nc12: 128
COC(=O)c1cccc2nc3cccc(OC)c3nc12: 128

Summary for this compound, `Cc1cccc2nc3cccc(C(=O)NS(C)(=O)=O)c3nc12` : MIC is 32

----------
Experiment: Toxicity in Galleria mellonella larvae assessed as survival at 3 ug/ml after 96 hrs relative to control
Assay type: organism-based
Conditions: in vivo
measured property: survival at 96 h (%)
Output spec: scalar in %, unitless text.

The reported survival at 96 h of the molecule `CS(=O)(=O)NC(=O)c1cccc2nc3cccc(Cl)c3nc12` was 70

----------
The entries below are paired with their reported MIC.
System: Staphylococcus aureus
Experiment: Antibacterial activity against methicillin-resistant Staphylococcus aureus USA300 JE2 after 24 hrs by broth microdilution method
Format: functional
Details: USA300 JE2, 24 h

Worked cases, MIC given:
COC(=O)c1cccc2nc3cc(OC)cc(Br)c3nc12: 128 µg/mL
COC(=O)c1cccc2nc3cc(Br)cc(OC)c3nc12: 128 µg/mL
CS(=O)(=O)NC(=O)c1cccc2nc3c(Cl)ccc(Cl)c3nc12: 16 µg/mL
O=C(O)c1cccc2nc3c(Cl)ccc(Cl)c3nc12: 64 µg/mL
CS(=O)(=O)NC(=O)c1cccc2nc3cccc(Cl)c3nc12: 2 µg/mL

Shifting focus to the molecule that follows.
MIC of `NC(=O)c1cccc2nc3c(Cl)ccc(Cl)c3nc12` , assay on Staphylococcus aureus, is 128 µg/mL

----------
System: Staphylococcus aureus
Assay: Antibacterial activity against methicillin-resistant Staphylococcus aureus USA300 JE2 after 24 hrs by broth microdilution method
Format: functional
Details: USA300 JE2, 24 h
# reported MIC; entries follow
Your answer is read as µg/mL, so omit the unit and give the number.

Record excerpt, results attached:
COc1cc(Br)cc2nc3cccc(C(=O)O)c3nc12: 128
N#CNC(=O)c1cccc2nc3cccc(F)c3nc12: 128
COc1ccc2nc3c(C(=O)O)cccc3nc2c1: 256

Memo: `COc1ccc(Br)c2nc3c(C(=O)NC#N)cccc3nc12` , reported MIC: 256

Sure, the documented MIC for `COc1cc(Br)c2nc3c(C(=O)O)cccc3nc2c1` is 64

Record `COc1ccc(Br)c2nc3c(C(=O)NS(C)(=O)=O)cccc3nc12` . Reported MIC: 128

# MIC of `O=C(NO)c1cccc2nc3cccc(Cl)c3nc12` = 32

// `O=C(Nc1nnn[nH]1)c1cccc2nc3cccc(Cl)c3nc12` : MIC value = 32

Measured MIC of `COC(=O)c1cccc2nc3cc(OC)ccc3nc12` : 128

----------
Tested on: Staphylococcus aureus
Test: Antibacterial activity against methicillin-resistant Staphylococcus aureus USA300 JE2 after 24 hrs by broth microdilution method
Assay type: functional
Details: USA300 JE2, 24 h
measured property: MIC (µg/mL)
Lab book: enter the figure in µg/mL, no units written.

COC(=O)c1cccc2nc3c(Cl)ccc(Cl)c3nc12: 128
CS(=O)(=O)NC(=O)c1cccc2nc3ccccc3nc12: 128
CS(=O)(=O)NC(=O)c1cccc2nc3cccc(F)c3nc12: 64

MIC recorded for this compound, `CN(C(=O)c1cccc2nc3ccccc3nc12)S(C)(=O)=O` , is 256

Entry `COc1ccc(Br)c2nc3c(C(=O)O)cccc3nc12` , MIC reported as 128

----------
System: Staphylococcus aureus
Test: Antibacterial activity against methicillin-resistant Staphylococcus aureus USA300 JE2 after 24 hrs by broth microdilution method
Assay type: functional
Conditions: USA300 JE2, 24 h
A collection of compounds and their measured MIC

Sample records with MIC:
CN(C(=O)c1cccc2nc3cccc(Cl)c3nc12)S(C)(=O)=O: > 256 µg/mL
NC(=O)c1cccc2nc3cccc(Cl)c3nc12: > 256 µg/mL

// next item, MIC requested
So, `N#Cc1cccc2nc3cccc(Cl)c3nc12` ? Its MIC was > 256 µg/mL
